target: UniProt P0DMS8
Sequence (P0DMS8 whole entry): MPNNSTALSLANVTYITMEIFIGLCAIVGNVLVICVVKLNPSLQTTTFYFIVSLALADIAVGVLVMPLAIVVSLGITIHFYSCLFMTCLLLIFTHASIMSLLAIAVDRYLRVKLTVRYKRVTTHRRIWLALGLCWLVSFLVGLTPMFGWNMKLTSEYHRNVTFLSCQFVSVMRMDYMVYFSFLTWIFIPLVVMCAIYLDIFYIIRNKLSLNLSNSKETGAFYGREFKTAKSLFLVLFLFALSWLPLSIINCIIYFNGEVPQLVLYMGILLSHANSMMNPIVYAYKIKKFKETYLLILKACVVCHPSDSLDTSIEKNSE
assay_notes: Agonist activity at human adenosine A3 receptor expressed in CHO cells by GTPPgammaS binding assay
Overview of recorded pEC50 for various compounds
Keep it numeric: pEC50 is minus log10 of the concentration in mol/L.

// worked examples, pEC50 included
CCC(=O)N[C@H]1C[C@@H](n2cnc3c(NCC(c4ccccc4)c4ccccc4)nc(NCCc4c[nH]cn4)nc32)[C@H](O)[C@@H]1O :: 6.86
CC(C)n1cnc(CCNc2nc(NCC(c3ccccc3)c3ccccc3)c3ncn([C@@H]4C[C@H](NC(=O)C5CC5)[C@@H](O)[C@H]4O)c3n2)c1 :: 6.45
CCC(=O)N[C@H]1C[C@@H](n2cnc3c(NC(CC)CC)nc(NCCc4cn(CC)cn4)nc32)[C@H](O)[C@@H]1O :: 5.79

Looking for the measured pEC50 of CCc1cnn([C@H]2C[C@@H](n3cnc4c(N)nc(N[C@H](CO)Cc5ccccc5)nc43)[C@H](O)[C@@H]2O)c1 , can you help?
6.11
